# System: Zika virus NS2B-NS3 protease (linked construct)
# TEST NAME: Confirmatory screen NINDS AMC qHTS for Zika virus inhibitors (AID 1347152); further: nearly all actives have a fitted effect of over 70% in size
# MEASUREMENT CONDITIONS: Purified linked NS2B-NS3, AMC substrate fluorescence; series mostly up to 110 µM
Records with an inconclusive call do not appear. The source made the active and inactive calls. The call rests on the fitted dose curve; in most records, active means well fitted inhibition curve with a large enough effect; inconclusive means small, poorly fitted or top-dose-only effect; inactive means flat fitted curve, though single readings scatter.
Classes used: T for active, F for inactive

{"columns": ["COMPOUND", "LABEL CLASS"],
 "data": [
  ["COc1ccc(-c2ccnc(N[C@H]3CO[C@H]4[C@@H]3OC[C@@H]4NS(=O)(=O)c3ccc4ccccc4c3)n2)cc1", "F"],
  ["Nc1cc(N)c(N=Nc2ccc(S(=O)(=O)Nc3nccs3)cc2)cc1N=Nc1ccc(S(=O)(=O)Nc2nccs2)cc1", "T"],
  ["N#Cc1ccc(OCC2CN(Cc3c[nH]c4ccccc34)C(=O)c3c(ccnc3-c3ccc(OCC(=O)O)cc3)O2)cc1 (centres undefined)", "F"],
  ["CC1(COc2ccc(C[C@H]3SC(=O)NC3=O)cc2)CCCCC1", "T"],
  ["Cc1cccc(C)c1NS(=O)(=O)c1ccc(NS(=O)(=O)c2ccc3c(c2)OCCO3)cc1", "F"],
  ["Cc1c2ccccc2c(CSC(=N)N)c2ccccc12", "F"],
  ["CN(CC(=O)N(Cc1ccc(C2CCCCC2)cc1)c1ccc(C(=O)O)cc1)S(=O)(=O)c1c(F)c(F)c(F)c(F)c1F", "T"],
  ["CN(Cc1cnc2nc(N)nc(N)c2n1)c1ccc(C(=O)NC(CCC(=O)O)C(=O)O)cc1 (centres undefined)", "F"],
  ["CC1CCN(C(c2ccc(F)cc2)c2ccc(C(C)C(=O)O)cc2-c2ccc(C(F)(F)F)cc2)CC1 (centres undefined)", "T"]
]}

---

# TEST NAME: SDT Cancer Cell Toxicity qHTS against the NCATS CANVASS Library (AID 1347365); further: nearly all actives have a fitted effect of over 60% in size; further: potency means the concentration at half of the fitted maximal effect
# MEASUREMENT CONDITIONS: SDT dog glioma viability, ATP luminescence, 72 h; series mostly up to 46.1 µM
Inconclusive results are not listed. Activity calls are given as the source filed them. The call rests on the fitted dose curve; in most records, active means well fitted cell-killing curve with a large enough effect; inconclusive means small, poorly fitted or top-dose-only effect; inactive means flat fitted curve, though single readings scatter. Numbered stars: 1 amine (or outer) side, 2 acyl side, 3 side chain; on linkers, the order of the positions; unused ones are H or OH. Square brackets hold non-standard residues; d marks the D form. Peptide text beside a SMILES is read from it. ξ: configuration not given here. X4 = O=C(C1CC2(c3ccc(O)cc3)c3ccccc3NC2N1[*:1])[*:2]; ξW = NC(Cc1c[nH]c2ccccc12)C(=O)O; ξY = NC(Cc1ccc(O)cc1)C(=O)O

{"columns": ["COMPOUND", "Potency"],
 "data": [
  ["CC[C@H](C)[C@H](NC(=O)C(Cc1ccc(O)cc1)NC(=O)C(Cc1c[nH]c2ccccc12)NC(=O)[C@H](C)N)C(=O)N1C(C(=O)NC(Cc2ccc(O)cc2)C(=O)O)CC2(c3ccc(O)cc3)c3ccccc3NC12 (stereo partly drawn) (H-A[ξW][ξY]I[X4][ξY]-OH)", "inactive"],
  ["CO[C@H]1/C=C/CC[C@@H](S[C@@H]2O[C@H](CO)[C@@H](O)[C@H](O)[C@H]2O)CC(=O)O[C@@H](/C(C)=C/[C@H](C)C(=O)CCCC2CC(=O)NC(=O)C2)[C@@H](C)[C@@H]1O", "1180 nM (active)"],
  ["C=C1C[C@@]23C=CC(=O)[C@@](C)(CCC(=O)Nc4c(O)ccc(C(=O)O)c4O)C2C[C@@H]1CC3O (stereo partly drawn)", "inactive"]
]}

---

# TEST NAME: qHTS for Inhibitors of Plasmodium falciparum (7G8) proliferation (AID 504316); further: nearly all actives have a fitted effect of over 65% in size
# MEASUREMENT CONDITIONS: P. falciparum 7G8 in erythrocytes, SYBR Green DNA, 72 h; series mostly up to 6.7 µM
Records with an inconclusive call do not appear. Active and inactive are the calls of the source. The call rests on the fitted dose curve; in most records, active means well fitted inhibition curve with a large enough effect; inconclusive means small, poorly fitted or top-dose-only effect; inactive means flat fitted curve, though single readings scatter.
Possible outcomes: 1 = active, -1 = inactive

{"columns": ["COMPOUND", "LABEL CLASS"],
 "data": [
  ["C=CC[C@@H]1C=C[C@@H](OC(=O)OCC)[C@@H](COC(=O)OCC)O1", -1],
  ["COc1ccc2c(c1)CO[C@H]([C@H](O)CBr)[C@H]2C=Cc1ccccc1", -1],
  ["CCN1C(N(C)CCOC)=NC(c2cccc(F)c2)C(C(=O)OC)=C1C (configuration not stated)", -1],
  ["C[C@@H]1CC[C@H]2C(=O)N(Cc3ccccc3)C[C@@H](O)CN2[C@@H]1c1cccc(Br)c1", -1],
  ["COC(=O)C1=C[C@@]2(c3ccc(OC)cc3[C@@H](OC)[C@@H]2C)[C@@H]2C=C[C@@H]1C2", -1],
  ["CC1(OC(=O)c2ccc(Cl)nc2)C(=O)C=C2C=C3CCCN3C=C2C1=O (configuration not stated)", -1],
  ["COC(=O)C1C[C@@]23C(=NN=C(SC)C2N(C)c2ccc(OC)cc23)N1C(C)=O (some centres not stated)", -1],
  ["COC(=O)C[C@H]1c2ccccc2[C@@H]2C(=C[C@@H](C)[C@H]3C(=O)NC(=O)[C@H]32)N1C(=O)OC", -1],
  ["COC1=CC2C(=O)C(C1=O)C1c3ccccc3CC21 (configuration not stated)", -1],
  ["CC(=O)C1=C(C)N(Cc2ccccc2)C(=O)NC1c1cccc(C(F)(F)F)c1 (configuration not stated)", -1],
  ["CCOC(=O)C(c1ccc(OC)c(OC)c1)C1c2ccccc2C=C(C)N1C(=O)OC (configuration not stated)", -1],
  ["C[C@@H]1CC[C@H]2C(=O)O[C@@H](Cc3ccccc3)CN2[C@@H]1c1ccc(Br)cc1", -1],
  ["CC1(OC(=O)CCc2ccccc2)C(=O)C=C2C=C(c3ccc(C#N)cc3)N(C(CO)CO)C=C2C1=O (configuration not stated)", -1],
  ["COC1=CC2C(=O)C(C(c3ccccc3)C2C)C1(O)c1cccc(OC)c1 (configuration not stated)", -1],
  ["COC(=O)C1=C(C(=O)OC)[C@@H]2N(C)c3ccccc3[C@@]23C[C@@H](C(=O)OC)N(C(=O)Nc2cccc(C#N)c2)C3=N1", -1],
  ["CCCCC1=CC2=C(c3ccco3)C(=O)C(C)(OC(=O)c3ccc(OC)cc3)C(=O)C2=CN1CCCOC(C)C (configuration not stated)", -1],
  ["CCOC(=O)OC[C@H]1O[C@H](c2ccc(C(C)=O)cc2)C=C[C@H]1Oc1ccc(-c2ccccc2)cc1", 1],
  ["COc1ccc([C@]23Cc4cc(C#N)ccc4[C@H](O2)c2c(cc(C)n(Cc4ccccc4)c2=O)O3)cc1", 1],
  ["COc1ccc(O[C@H]2C=C[C@@H](c3ccccc3)O[C@H]2CON=C2c3cc(OC)ccc3O[C@H](c3cccc(OC)c3)[C@H]2O)cc1", 1],
  ["CCN1C(=O)NC(c2ccco2)C(C(C)=O)=C1C (configuration not stated)", -1],
  ["CCCCS(=O)(=O)N1CCc2nc(-c3ccccc3)c3c(c2C1)CO[C@@H](C)C3", -1],
  ["CCCCc1cc2c(cn1)=C(OC(=O)c1cnc3ccccc3n1)C(C)(OC(=O)CC)C(=O)C=2 (configuration not stated)", 1],
  ["COc1ccc(-c2nc(-c3ccccc3)oc2Nc2c(C)cccc2C)cc1", -1],
  ["C=CCOC(=O)N[C@H](C(C(=O)OC)=C(C)NCc1ccccc1)c1ccc(Br)cc1", -1],
  ["COC(=O)C1=C(C)[C@H](O)[C@@H](C)[C@](C)(c2cc(OC)c(C)c(OC)c2COc2ccccc2)O1", -1],
  ["C=C(C#Cc1ccc(OC)cc1)CCN1C=C(C(=O)OCC)C(c2ccccc2)NC1=O (configuration not stated)", -1],
  ["COC(=O)C1=C(C(=O)OC)[C@@H]2Nc3ccccc3[C@@]23C[C@@H](C(=O)OC)N(C(=O)NCCBr)C3=N1", 1],
  ["O=C(NC(CC1=CCCCC1)c1ccc2c(c1)OCO2)C(F)(F)F (configuration not stated)", -1],
  ["COc1ccc2c(c1)C(=O)[C@@H](OC(=O)Nc1cc(OC)c(OC)c(OC)c1)[C@H](c1ccc(OC)c(Br)c1)O2", -1],
  ["COc1cc(C(NC(=O)C(F)(F)F)c2cc3ccccc3o2)cc(OC)c1OC (configuration not stated)", -1],
  ["CCCCC1=CC2=CC(=O)C(C)(O)C(=O)C2=CO1 (configuration not stated)", -1],
  ["CC1=CC[C@@H](C)O[C@@]2(C1)C(=O)N(Cc1ccc(Br)cc1)c1ccccc12", -1],
  ["CCN1C(=NCc2ccccc2)N[C@@H](c2ccccc2)[C@H](C(=O)OC)[C@H]1C", -1],
  ["COc1ccc2c(c1)O[C@H](c1ccc3c(c1)OCO3)[C@@H](OC(=O)N[C@H]1CCCc3ccccc31)C2=O", -1],
  ["Cc1cc(O)cc(O)c1C(=O)OC1(C)C(=O)C=C2C=C(C=CC(=O)O)OC=C2C1=O (configuration not stated)", -1],
  ["C=CCNC(=O)N1CCc2nc(CCCC)c3c(c2C1)CO[C@@H](C)C3", -1],
  ["COC(=O)C1=C(C)N(Cc2ccccc2)C(=S)NC1c1ccc(Br)cc1 (configuration not stated)", -1]
]}

Every entry's value here was drawn from PubChem BioAssay (NCATS).
